Where do the numbers come from? From PubChem BioAssay AID1963862.

# Tested on: KRAS patient-derived spheroids with HUVEC/MSC, viability
# ASSAY_REMARKS: Anticancer human tumor 941728-121-R-J1-PDC patient-derived lung adenocarcinoma cell line growth inhibition [KRAS2]
# RECORDED_CONDITIONS: second compound 1 µM; first compound 0.1 µM; hits give low values
API: label(entry) gives yes (1) if the entry's viability, T/C is strictly smaller than 30%; on equality or larger values it gives no (0).

Study these solved cases before continuing.
CC(C)NCC(C(=O)N1CCN(c2ncnc3c2C(C)CC3O)CC1)c1ccc(Cl)cc1 (stereo unspecified) + C=CC(=O)N1CCN(c2nc(OCC3CCCN3C)nc3c2CCN(c2cccc4cccc(C)c24)C3)CC1CC#N | yes (1)
CC(C)NCC(C(=O)N1CCN(c2ncnc3c2C(C)CC3O)CC1)c1ccc(Cl)cc1 (stereo unspecified) + COc1cc2nc(C)nc(NC(C)c3cc(N)cc(C(F)(F)F)c3)c2cc1OC1CCOC1 | no (0)
CCNC(=O)CC1N=C(c2ccc(Cl)cc2)c2cc(OC)ccc2-n2c(C)nnc21 (stereo unspecified) + C=CC(=O)N1CCN(c2nc(OCC3CCCN3C)nc3c2CCN(c2cccc4cccc(C)c24)C3)CC1CC#N | yes (1)
CC(C)n1nc(-c2ccc3oc(N)nc3c2)c2c(N)ncnc21 + CC1OCC2(CCN(c3cnc(Sc4ccnc(N)c4Cl)c(N)n3)CC2)C1N | yes (1)
CC(C)NCC(C(=O)N1CCN(c2ncnc3c2C(C)CC3O)CC1)c1ccc(Cl)cc1 (stereo unspecified) + C=CC(=O)N1CCN(c2nc(=O)n(-c3c(C)ccnc3C(C)C)c3nc(-c4c(O)cccc4F)c(F)cc23)C(C)C1 | yes (1)
CCNC(=O)CC1N=C(c2ccc(Cl)cc2)c2cc(OC)ccc2-n2c(C)nnc21 (stereo unspecified) + CC1OCC2(CCN(c3cnc(Sc4ccnc(N)c4Cl)c(N)n3)CC2)C1N | yes (1)
CC(C)n1nc(-c2ccc3oc(N)nc3c2)c2c(N)ncnc21 + C=CC(=O)N1CCN(c2nc(OCC3CCCN3C)nc3c2CCN(c2cccc4cccc(C)c24)C3)CC1CC#N | yes (1)
CC1OCC2(CCN(c3cnc(Sc4ccnc(N)c4Cl)c(N)n3)CC2)C1N (stereo unspecified) + CNCc1ccccc1-c1csc(C(C)Nc2nc(C)nc3cc(OC)c(OC)cc23)c1 | no (0)

[in] For this compound, is viability, T/C lower than 30%? O=C(c1cc(Cc2n[nH]c(=O)c3ccccc23)ccc1F)N1CCN(C(=O)C2CC2)CC1 + CNCc1ccccc1-c1csc(C(C)Nc2nc(C)nc3cc(OC)c(OC)cc23)c1
[out] no (0)

[in] Lab log: compare recorded viability, T/C with 30%; is it strictly lower for CC(C)NCC(C(=O)N1CCN(c2ncnc3c2C(C)CC3O)CC1)c1ccc(Cl)cc1 (stereo unspecified) + CC1OCC2(CCN(c3cnc(Sc4ccnc(N)c4Cl)c(N)n3)CC2)C1N ?
[out] yes (1)

###

# System: KRAS patient-derived spheroids with HUVEC/MSC, viability
# ASSAY_REMARKS: Anticancer human tumor 941728-121-R-J1-PDC cell line growth inhibition [KRAS2];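 further: spheroids exposed to agents for seven days before readout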
# RECORDED_CONDITIONS: second compound 3.16 µM; first compound 0.0316 µM; hits give low values
Field 'label' (enum: 1 (yes) / 0 (no)). Set to 1 (yes) when viability, T/C is strictly under 20%; else 0 (no).

CC(C)NCC(C(=O)N1CCN(c2ncnc3c2C(C)CC3O)CC1)c1ccc(Cl)cc1 (stereo unspecified) + CC1OCC2(CCN(c3cnc(Sc4ccnc(N)c4Cl)c(N)n3)CC2)C1N | 0 (no)
Cn1ncnc1[C@H]1c2n[nH]c(=O)c3cc(F)cc(c23)N[C@@H]1c1ccc(F)cc1 + CNCc1ccccc1-c1csc(C(C)Nc2nc(C)nc3cc(OC)c(OC)cc23)c1 | 1 (yes)
Cn1nccc1Nc1nccc(-c2cc3c(s2)C(C)(C)N(CCN2CCOCC2)C3=O)n1 + COc1cc2nc(C)nc(NC(C)c3cc(N)cc(C(F)(F)F)c3)c2cc1OC1CCOC1 | 0 (no)
CC(=O)OC12COC1CC(O)C1(C)C(=O)C(O)C3=C(C)C(OC(=O)C(O)C(NC(=O)OC(C)(C)C)c4ccccc4)CC(O)(C(OC(=O)c4ccccc4)C21)C3(C)C (stereo unspecified) + CC1OCC2(CCN(c3cnc(Sc4ccnc(N)c4Cl)c(N)n3)CC2)C1N | 0 (no)
CC(C)NCC(C(=O)N1CCN(c2ncnc3c2C(C)CC3O)CC1)c1ccc(Cl)cc1 (stereo unspecified) + C=CC(=O)N1CCN(c2nc(=O)n(-c3c(C)ccnc3C(C)C)c3nc(-c4c(O)cccc4F)c(F)cc23)C(C)C1 | 0 (no)

[in] Is 20% strictly greater than the compound's reported viability, T/C? compound: COc1cc(Nc2ncc3c(n2)-c2ccc(Cl)cc2C(c2c(F)cccc2OC)=NC3)ccc1C(=O)O + CC1OCC2(CCN(c3cnc(Sc4ccnc(N)c4Cl)c(N)n3)CC2)C1N
[out] 0 (no)

###

# Test system: KRAS patient-derived spheroids with HUVEC/MSC, viability
# ASSAY_REMARKS: Anticancer human tumor 941728-121-R-J1-PDC cell line growth inhibition [KRAS2];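 further: spheroids exposed to agents for seven days before readout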
# RECORDED_CONDITIONS: second compound 0.1 µM; first compound 1 µM; hits give low values
Some compounds, each annotated with its measured viability, T/C.

CC1OCC2(CCN(c3cnc(Sc4ccnc(N)c4Cl)c(N)n3)CC2)C1N (stereo not given) + C=CC(=O)N1CCN(c2nc(=O)n(-c3c(C)ccnc3C(C)C)c3nc(-c4c(O)cccc4F)c(F)cc23)C(C)C1 | 16.8%
CC1OCC2(CCN(c3cnc(Sc4ccnc(N)c4Cl)c(N)n3)CC2)C1N (stereo not given) + COc1cc2nc(C)nc(NC(C)c3cc(N)cc(C(F)(F)F)c3)c2cc1OC1CCOC1 | 36.1%
CCN1CCN(Cc2ccc(Nc3ncc(F)c(-c4cc(F)c5nc(C)n(C(C)C)c5c4)n3)nc2)CC1 + C=CC(=O)N1CCN(c2nc(OCC3CCCN3C)nc3c2CCN(c2cccc4cccc(C)c24)C3)CC1CC#N | 23.5%
COC(=O)c1ccc2c(C(=Nc3ccc(N(C)C(=O)CN4CCN(C)CC4)cc3)c3ccccc3)c(O)[nH]c2c1 + COc1cc2nc(C)nc(NC(C)c3cc(N)cc(C(F)(F)F)c3)c2cc1OC1CCOC1 | 70.2%
CCNC(=O)CC1N=C(c2ccc(Cl)cc2)c2cc(OC)ccc2-n2c(C)nnc21 (stereo not given) + CC1OCC2(CCN(c3cnc(Sc4ccnc(N)c4Cl)c(N)n3)CC2)C1N | 24.1%
COc1cc2nccc(Oc3ccc(NC(=O)C4(C(=O)Nc5ccc(F)cc5)CC4)cc3)c2cc1OC + CC1OCC2(CCN(c3cnc(Sc4ccnc(N)c4Cl)c(N)n3)CC2)C1N | 29.4%

[in] Provide viability, T/C value for the following compound: CC(=O)OC12COC1CC(O)C1(C)C(=O)C(O)C3=C(C)C(OC(=O)C(O)C(NC(=O)OC(C)(C)C)c4ccccc4)CC(O)(C(OC(=O)c4ccccc4)C21)C3(C)C (stereo not given) + CNCc1ccccc1-c1csc(C(C)Nc2nc(C)nc3cc(OC)c(OC)cc23)c1
[out] 34.3%

[in] Tell us which viability, T/C value is on record for CCNC(=O)CC1N=C(c2ccc(Cl)cc2)c2cc(OC)ccc2-n2c(C)nnc21 (stereo not given) + COc1cc2nc(C)nc(NC(C)c3cc(N)cc(C(F)(F)F)c3)c2cc1OC1CCOC1
[out] 16.1%

[in] Give the value of viability, T/C reported for the following: COc1cc2nccc(Oc3ccc(NC(=O)C4(C(=O)Nc5ccc(F)cc5)CC4)cc3)c2cc1OC + C=CC(=O)N1CCN(c2nc(OCC3CCCN3C)nc3c2CCN(c2cccc4cccc(C)c24)C3)CC1CC#N
[out] 13.3%

[in] Please indicate viability, T/C recorded for CC1(C)CCC(CN2CCN(c3ccc(C(=O)NS(=O)(=O)c4ccc(NCC5CCOCC5)c([N+](=O)[O-])c4)c(Oc4cnc5[nH]ccc5c4)c3)CC2)=C(c2ccc(Cl)cc2)C1 + COc1cc2nc(C)nc(NC(C)c3cc(N)cc(C(F)(F)F)c3)c2cc1OC1CCOC1
[out] 33.9%

###

Form field: viability, T/C (one value per entry).
# System: KRAS patient-derived spheroids with HUVEC/MSC, viability
# ASSAY_REMARKS: Anticancer human tumor 941728-121-R-J1-PDC cell line growth inhibition [KRAS2];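 further: spheroids exposed to agents for seven days before readout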
# RECORDED_CONDITIONS: second compound 0.316 µM; first compound 0.1 µM; hits give low values
Give the quantity in %, number only.

[in] Quickly give me recorded viability, T/C for CC(C)n1nc(-c2ccc3oc(N)nc3c2)c2c(N)ncnc21 + COc1cc2nc(C)nc(NC(C)c3cc(N)cc(C(F)(F)F)c3)c2cc1OC1CCOC1
[out] 16.7

[in] Determine from records and report viability, T/C for Cn1nccc1Nc1nccc(-c2cc3c(s2)C(C)(C)N(CCN2CCOCC2)C3=O)n1 + C=CC(=O)N1CCN(c2nc(=O)n(-c3c(C)ccnc3C(C)C)c3nc(-c4c(O)cccc4F)c(F)cc23)C(C)C1
[out] 24.4

[in] Return viability, T/C (reported value) for this compound: Cn1nccc1Nc1nccc(-c2cc3c(s2)C(C)(C)N(CCN2CCOCC2)C3=O)n1 + COc1cc2nc(C)nc(NC(C)c3cc(N)cc(C(F)(F)F)c3)c2cc1OC1CCOC1
[out] 55.3
